# Tested system: T1, human iRhom2, endogenously expressed (human, UniProt Q6PJF5 1-856)
# T1 sequence: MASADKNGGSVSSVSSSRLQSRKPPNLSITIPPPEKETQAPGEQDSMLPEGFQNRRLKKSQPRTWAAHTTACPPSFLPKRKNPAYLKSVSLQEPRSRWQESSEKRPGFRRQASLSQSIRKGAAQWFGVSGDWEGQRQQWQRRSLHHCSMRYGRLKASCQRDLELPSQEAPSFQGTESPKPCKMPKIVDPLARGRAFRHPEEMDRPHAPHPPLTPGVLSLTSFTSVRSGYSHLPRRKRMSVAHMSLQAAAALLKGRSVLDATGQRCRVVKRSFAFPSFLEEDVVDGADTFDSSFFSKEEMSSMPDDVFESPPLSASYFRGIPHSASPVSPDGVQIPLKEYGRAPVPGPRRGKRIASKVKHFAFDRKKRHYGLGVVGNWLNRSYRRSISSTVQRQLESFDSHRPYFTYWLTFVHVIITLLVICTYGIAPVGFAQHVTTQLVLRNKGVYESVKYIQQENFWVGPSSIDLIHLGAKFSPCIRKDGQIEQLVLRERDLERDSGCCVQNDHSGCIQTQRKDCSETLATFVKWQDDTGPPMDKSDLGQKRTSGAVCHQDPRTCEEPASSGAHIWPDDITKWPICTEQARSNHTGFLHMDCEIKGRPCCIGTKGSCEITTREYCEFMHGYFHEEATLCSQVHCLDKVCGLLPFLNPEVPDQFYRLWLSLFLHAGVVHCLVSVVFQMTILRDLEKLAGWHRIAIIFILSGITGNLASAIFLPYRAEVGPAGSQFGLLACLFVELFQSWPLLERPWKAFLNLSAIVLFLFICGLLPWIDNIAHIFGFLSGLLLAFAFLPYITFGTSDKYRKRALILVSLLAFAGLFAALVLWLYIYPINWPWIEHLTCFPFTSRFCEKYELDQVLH
# Assay: cell-based or functional assay
Values of PMA-induced IL-6R release from THP-1 cells, percent inhibition, 1 µg/ml greater than or equal to 70% map to met; values below map to not met.

antibody 42 (antibody, V domains shown, mouse IgG, kappa light chain; also called clone #42; purified antibody 42) VH: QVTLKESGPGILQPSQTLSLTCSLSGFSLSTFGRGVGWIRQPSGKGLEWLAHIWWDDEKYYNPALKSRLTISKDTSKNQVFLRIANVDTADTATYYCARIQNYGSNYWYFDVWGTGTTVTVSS VL: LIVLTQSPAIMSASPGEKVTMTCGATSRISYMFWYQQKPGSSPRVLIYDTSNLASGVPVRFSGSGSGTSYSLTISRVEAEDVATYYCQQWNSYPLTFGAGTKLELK; met

Challenge: // inclusive: PMA-induced IL-6R release from THP-1 cells, percent inhibition, 1 µg/ml at least 70%? input: antibody 22 (antibody, V domains shown, mouse IgG, kappa light chain; also called clone #22; purified antibody 22) VH: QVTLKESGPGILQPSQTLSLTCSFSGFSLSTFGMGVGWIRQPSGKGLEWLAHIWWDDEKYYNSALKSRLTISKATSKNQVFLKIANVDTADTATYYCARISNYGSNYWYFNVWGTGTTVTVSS VL: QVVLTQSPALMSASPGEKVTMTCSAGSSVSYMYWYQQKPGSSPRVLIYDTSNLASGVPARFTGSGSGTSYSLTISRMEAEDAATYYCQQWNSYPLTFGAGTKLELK
Response given: not met

Challenge: Kindly determine if PMA-induced IL-6R release from THP-1 cells, percent inhibition, 1 µg/ml recorded for antibody 3 (antibody, V domains shown, mouse IgG, kappa light chain; also called clone #3; purified antibody 3) VH: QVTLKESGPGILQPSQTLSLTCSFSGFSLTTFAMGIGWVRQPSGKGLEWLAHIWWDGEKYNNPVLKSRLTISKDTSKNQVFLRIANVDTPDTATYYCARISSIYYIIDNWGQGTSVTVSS VL: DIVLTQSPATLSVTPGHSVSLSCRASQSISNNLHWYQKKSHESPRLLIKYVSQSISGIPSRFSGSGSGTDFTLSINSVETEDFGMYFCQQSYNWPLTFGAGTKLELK is above or exactly 70%.
Response given: not met

Challenge: Check the entry antibody 16 (antibody, V domains shown, mouse IgG, kappa light chain; also called clone #16; purified antibody 16) VH: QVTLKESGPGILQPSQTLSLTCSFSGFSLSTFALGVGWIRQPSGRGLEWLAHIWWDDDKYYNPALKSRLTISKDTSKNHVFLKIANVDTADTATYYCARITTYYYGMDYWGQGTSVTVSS VL: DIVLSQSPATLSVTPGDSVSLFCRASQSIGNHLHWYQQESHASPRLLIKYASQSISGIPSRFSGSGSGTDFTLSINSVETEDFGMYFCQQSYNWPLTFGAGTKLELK : does PMA-induced IL-6R release from THP-1 cells, percent inhibition, 1 µg/ml equal or exceed 70%?
Response given: met

Challenge: Dear colleague, could you confirm whether antibody 5 (antibody, V domains shown, mouse IgG, kappa light chain; also called clone #5; purified antibody 5) VH: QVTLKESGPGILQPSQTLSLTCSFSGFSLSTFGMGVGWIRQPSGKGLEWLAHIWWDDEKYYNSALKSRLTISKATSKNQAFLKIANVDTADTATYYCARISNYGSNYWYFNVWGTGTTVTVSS VL: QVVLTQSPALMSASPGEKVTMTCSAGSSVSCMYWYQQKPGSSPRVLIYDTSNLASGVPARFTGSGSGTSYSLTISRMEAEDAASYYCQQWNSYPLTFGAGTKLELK has PMA-induced IL-6R release from THP-1 cells, percent inhibition, 1 µg/ml at or above 70%?
Response given: not met

Challenge: For this binder, is measured PMA-induced IL-6R release from THP-1 cells, percent inhibition, 1 µg/ml 70% or higher? antibody 44 (antibody, V domains shown, mouse IgG, kappa light chain; also called clone #44; purified antibody 44) VH: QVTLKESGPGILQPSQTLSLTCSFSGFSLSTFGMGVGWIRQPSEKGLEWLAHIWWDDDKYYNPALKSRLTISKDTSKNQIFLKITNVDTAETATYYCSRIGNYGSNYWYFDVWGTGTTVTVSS VL: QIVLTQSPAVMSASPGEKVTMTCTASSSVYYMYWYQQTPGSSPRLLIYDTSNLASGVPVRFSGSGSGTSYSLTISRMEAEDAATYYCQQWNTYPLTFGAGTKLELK
Response given: met

Challenge: Identify whether the reported PMA-induced IL-6R release from THP-1 cells, percent inhibition, 1 µg/ml of the following binder is 70% or greater: antibody 43 (antibody, V domains shown, mouse IgG, kappa light chain; also called clone #43; purified antibody 43) VH: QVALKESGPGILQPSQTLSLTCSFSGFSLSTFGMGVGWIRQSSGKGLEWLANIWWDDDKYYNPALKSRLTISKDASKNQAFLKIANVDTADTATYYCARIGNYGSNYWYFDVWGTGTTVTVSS VL: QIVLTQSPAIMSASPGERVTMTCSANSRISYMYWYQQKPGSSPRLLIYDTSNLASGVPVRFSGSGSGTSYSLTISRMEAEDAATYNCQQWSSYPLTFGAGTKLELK
Response given: met
